system: XIP peptide (Xip251-270); assay: small-molecule binders of XIP peptide, primary screen, biochemical, small-molecule microarray, fluorescence 635/667 nm, 0.5 µg/mL protein (AID 1183); conditions: small-molecule microarray binding, fluorescence 635 nm; higher = more signal
MEASURE_NAME: composite z-score
Answers are plain numbers.

Check out these entries, answers already filled in.
MOLECULE: COCCCNC(=O)[C@@]1(c2ccc([N+](=O)[O-])cc2)CC(=O)N(C2CCCCC2)[C@@H]1c1ccc(CO)cc1
composite z-score: -0.0219

MOLECULE: C=CCN1C(=O)[C@]2(O[C@H](CCn3cc(CCO)nn3)[C@@H]([Si](C)(C)c3ccc(OC)cc3)[C@@H]2C)c2cc(NC(=O)c3ccc(OC)cc3)ccc21
composite z-score: 0.18

MOLECULE: CCOC(=O)C[C@H]1[C@H](OC(=O)c2ccccc2-c2ccccc2)[C@@H](NC(=O)C2CCCCC2)c2cc(OCCCO)ccc2N1C(=O)c1ccccc1
composite z-score: 0.0325

MOLECULE: CCCCCCc1nc(-c2cc(C)c(OC)c(C)c2)cc2c1[Si](C(C)C)(C(C)C)O[C@H]2c1ccccc1
composite z-score: -0.461

MOLECULE: O=C1C2C=CC(C(O)Cc3ccccc3)N(Nc3ccc([N+](=O)[O-])cc3)C2C(=O)N1c1ccccc1 (configuration not stated)
composite z-score: -0.224

MOLECULE: C=C[C@H](OC)[C@@H](OC(=O)Nc1ccc(SC)cc1)c1ccc(O)c(F)c1
composite z-score: 0.719

Would you kindly look at the next entry?
Q: Provide composite z-score value for the following molecule: `CSCC[C@@H]1NC(=O)CC=C[C@@H](C)COC(=O)[C@H](CCSC)NC(=O)CC=C[C@@H](C)COC1=O`
Result: -0.467
